We begin with a simple list: items and their reported log10 of Ki.
- MEASUREMENT_TARGET: GABA-A receptor; anion channel
- PROTOCOL: Inhibition of [3H]- flumazenil binding to benzodiazepine receptor in bovine brain membranes
OBSERVABLE: log10 of Ki (log10 of the value in nM)

CCOC(=O)[C@H](C)NC(=O)C(=O)c1c[nH]c2ccc([N+](=O)[O-])cc12 :: 3.29
Cc1ccc([C@@H](C)NC(=O)C(=O)c2c[nH]c3ccc([N+](=O)[O-])cc23)cc1 :: 1.53
COc1ccc(C(C)NC(=O)C(=O)c2c[nH]c3ccccc23)cc1OC (racemic) :: 2.93
O=C(NCc1ccc([N+](=O)[O-])cc1)C(=O)c1c[nH]c2ccc(Cl)cc12 :: 3.14
C[C@@H](NC(=O)C(=O)c1c[nH]c2ccc([N+](=O)[O-])cc12)c1ccc([N+](=O)[O-])cc1 :: 1.89
CCOC(=O)[C@@H](C)NC(=O)C(=O)c1c[nH]c2ccc([N+](=O)[O-])cc12 :: 1.65
O=C(NCc1ccc([N+](=O)[O-])cc1)C(=O)c1c[nH]c2ccccc12 :: 1.32
COc1ccc(C(C)NC(=O)C(=O)c2c[nH]c3ccc([N+](=O)[O-])cc23)cc1 (racemic) :: 2.05
COc1ccc(CNC(=O)C(=O)c2c[nH]c3ccc(OC)cc23)cc1 :: 2.69
